These data points were gathered from the supplement of paper PMC10724198.

Please respond with reported protein stability index for every item in the list.
Test system: Saccharomyces cerevisiae
Experiment: protein stability index of tFT-peptide fusion (C-terminal peptide) (PSI (0-1 scale)); higher = more stable (slower turnover)
Details: genetic background: wild type; temperature: 30 C
Answers are plain numbers.

SSSYCHPSCVSC | 0.661
GHVCNSIVPFRV | 0.624

// for each sequence in input: emit protein stability index
1. PVAGSAGVRNLP
2. SSSLRLCSCAGQ
3. VGLGAGGTSLMR
4. FLLCRVFVLLRS
5. KTRHMQGNRVDS
6. GVLGCCGLAWRG
7. VDVWRWRGLRVG
8. GSRAECWEVGGV

Output:
1. 0.671
2. 0.723
3. 0.571
4. 0.163
5. 0.603
6. 0.697
7. 0.555
8. 0.674

###

Test system: Saccharomyces cerevisiae
Assay: protein stability index of tFT-peptide fusion (C-terminal peptide) (PSI (0-1 scale)); higher = more stable (slower turnover)
Conditions: genetic background: wild type; temperature: 30 C
Exercise: state measured protein stability index for each of the sequences provided.
Give bare numbers.

Illustrative cases are given below, each with its answer.
ECFRWQRRLHYD | 0.533
PPPTHPHLSSAL | 0.73
HSLLPSYPFLSP | 0.715
RRMCARRSAAIV | 0.665
SHESRPNLGCIY | 0.678

Provide each entry's protein stability index from the list below.
1. ITIPISGLQVGV
2. RRIILAGLFLIS
3. VMYLSGCFHSQI
4. ESCIFLMWLTVL
5. VGGRRCVCVWWL
6. LSFLSDVRHIRE
7. SVVGRLVGGFRW
8. SNLPVSSLPSLS

Output:
[0.591, 0.403, 0.659, 0.136, 0.674, 0.643, 0.706, 0.682]

# batch: return protein stability index for each of the 5 sequences below
1. GEYEHHKNKKRR
2. GALGCHPGLPSP
3. MAFKLFPFGRNL
4. GDLEFCCLIIVL
5. CVIESIEQCLSR

Output:
1. 0.7
2. 0.714
3. 0.73
4. 0.321
5. 0.716

Input: Form field: reported protein stability index of DARGTVVEIRPG
Output: 0.72

###

System: Saccharomyces cerevisiae;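 note: PSI is a weighted mean of sequencing reads over stability bins, variants kept only with over 10 reads, mCherry proximal and sfGFP distal, peptide attached via GGGS linker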
Assay: protein stability index of tFT-peptide fusion (C-terminal peptide) (PSI (0-1 scale)); higher = more stable (slower turnover)
Conditions: genetic background: wild type; temperature: 30 C
Please provide measured protein stability index for the entries that follow.

Completed entries (count: 3):
PPPPPTALLRPP | 0.731
PPPPPLPRSPSP | 0.807
SSCLDAHPPSSS | 0.736

Consider the following items and state reported protein stability index for each.
1. AFRFLAVCVGCG
2. GSRPVSAGCAYS
3. SLPPPSSPPPPL

Output:
1: 0.263; 2: 0.655; 3: 0.692

Here are 4 sequences. What values of protein stability index were reported for them?
1. WCIPEAPVATSR
2. SGRGWILCAYRV
3. ALFLFGSDRFFV
4. WDVGSHRGGFWL

Output:
1. 0.684
2. 0.632
3. 0.747
4. 0.713

Can you give me protein stability index for all of these, one by one?
1. LPPPSPPSSAPP
2. PAFPPPLPRRFL
3. RAPRSPPPPALA
4. KIRRECIGSSVY
5. RPFPLPPRPSPP
6. IFSGCRIALSVF
7. STEIHIKLNAWT

Output:
1. 0.734
2. 0.693
3. 0.771
4. 0.687
5. 0.673
6. 0.181
7. 0.687

State recorded protein stability index for all listed sequences.
1. RPPLLSPTRTLP
2. GLFVSLRGLSLS
3. VWGWGSWGGCGG
4. SLLSLPPSRAPS
5. RNPYNTNTVSNI
6. AMAELVCVSLRC
7. VLVSGRCCRCGF
8. HWVRLSSLAFVS

Output:
0.707
0.71
0.705
0.666
0.732
0.536
0.701
0.176
